assay.remarks: DUSP6 inhibitors restoring Erk phosphorylation by chemical complementation, primary imaging in DUSP6-transfected HeLa (AID 609)
protocol.conditions: HeLa MKP-3 transfected, phospho-Erk imaging KS statistic; measured here: cell density z-score; at 10 µM; cells stimulated with TPA for 15 min
Measured z-score by item
Write the value as a bare number.

Below: 2 compounds and their reported z-score.
>>> value_measured("CC(C)(C)c1ccc(C(=O)C=[N+]=[N-])cc1")
-1.12
>>> value_measured("CC1(C)CC(=O)C2=C(C1)N(CC1CCCO1)C(=O)C2(O)C(F)(F)F (stereo unspecified)")
-0.368

Task: Entry under review: `CCOC(=O)c1c(NC(=O)CCN2CCOCC2)sc2c1CC(C)(C)OC2` . Reported z-score?
Result: 0.476

Task: Ok, now CCOC(=O)c1[nH]c2cc3c(cc2c1NC(=O)CN1CCCCC1C)OCO3 (stereo unspecified)
Result: 0.894

Task: Ok, now `CC(=O)Nc1ccccc1O`
Result: -0.0756

Task: Ok, now `O=C1N[C@@H](Cc2cnc[nH]2)C(=O)N2CCC[C@@H]12`
Result: -1.25

Task: Ok, now Cc1cc2c(c(=O)o1)C(Cc1ccccc1)C(C#N)=C(N)O2 (stereo unspecified)
Result: -1.29

Task: Ok, now `COc1ccc(OC)c(NC(=O)CSc2nnc(-c3ccco3)n2-c2ccc(C(=O)O)cc2)c1`
Result: 0.414

Task: Ok, now CC1(C)S[C@@H]2[C@H](NC(=O)C(C(=O)O)c3ccccc3)C(=O)N2[C@H]1C(=O)O (stereo partly specified)
Result: 0.424

Task: Ok, now `O=C(Nc1nccs1)NC(C(F)(F)F)C(F)(F)F`
Result: 0.47

Task: Ok, now `CCCCCCc1cc2cc(C(=O)NC)c(=N)oc2cc1O`
Result: -0.814

The measured values listed here are drawn from PubChem BioAssay.
